Data origin: patent US9212178B2

target-desc: full-length human SYK (Homo sapiens (Human))
assay-overview: Inhibition of enzymatic SYK kinase activity (LANCE Ulight TK peptide)
Format: biochemical
conditions: ATP at Km (15 uM), 30 min pre-incubation
pIC50: −log10 of the molar value.
endpoint-label: pIC50

Cc1nn(-c2ccnc(Nc3ccc4c(c3)c(C(=O)C3CC3)cn4S(C)(=O)=O)n2)cc1CN1C[C@H](O)CO1 ... 8.23
CCn1cc(C(=O)C2CC2)c2cc(Nc3nccc(-n4cc(CN5CC(C)(O)CO5)c(C)n4)n3)ccc21 (stereo not shown) ... 7.76
Cc1nn(-c2nc(Nc3ccc4c(c3)c(C(=O)C(F)(F)F)cn4C)ncc2Cl)cc1CN1C[C@H](O)CO1 ... 6.88
Cc1nn(-c2ccnc(Nc3ccc4[nH]cc(C(=O)C(F)(F)F)c4c3)n2)cc1CN1C[C@H](O)CO1 ... 8.08
